Molecular target: T1, human IL-23R-mouse Fc fusion protein (human; mouse, UniProt Q5VWK5 24-353)
T1 construct: Expressed in FreeStyle 293 cells, purified; immobilized on the ELISA plate at 500 ng/mL; also called human IL-23R-Fc fusion protein; not shown: Fc region of mouse immunoglobulin (IgG2a) as encoded by the vector pFUSE-mIgG2A-Fc2 (InvivoGen); limits and any linker r
T1 sequence: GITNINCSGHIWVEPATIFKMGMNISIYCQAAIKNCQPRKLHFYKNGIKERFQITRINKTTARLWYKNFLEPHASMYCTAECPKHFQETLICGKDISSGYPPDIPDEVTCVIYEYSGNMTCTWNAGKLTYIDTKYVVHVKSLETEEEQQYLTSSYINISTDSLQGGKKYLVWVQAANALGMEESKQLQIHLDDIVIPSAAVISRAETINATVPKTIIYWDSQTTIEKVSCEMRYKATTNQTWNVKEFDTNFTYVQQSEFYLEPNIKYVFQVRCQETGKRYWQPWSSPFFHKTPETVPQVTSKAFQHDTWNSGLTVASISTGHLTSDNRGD
Test: antigen ELISA, human IL-23R-Fc immobilized, HRP anti-mouse Ig, chemiluminescence
Overview of recorded EC50 for various binders
reportedEndpoint: EC50 (µg/mL)

34-58 (chimeric) (antibody, V domains shown) VH: QVHLVQSGTEVRKPGASVKVSCKVSGYTLNELAIHWVRQAPGKGLEWMGGFDPEHGEIIYAQRFQGRITLPEDTSTDTAYMDLVNLRSEDTAVYFCTTEAAPFDYWGQGSLVIVSS VL: DIQMTQSPSTLSASVGDRVTITCRASQSLSNWLAWYQQKPGKAPKLLIYKASSLESGVPSRFSGSGSGTDFTLTISGLQPDDFATYYCQQYDIYPRTFGQGTKVEIKR | 0.017
30-16 (chimeric) (antibody, V domains shown) VH: QVQVVQSGAEVKKPGASVKVSCKVSGYTLIELAIHWVRQVPGKGLEWMGGFDPEHGETIYAQKFQGRVTMTEDTSTDTAYMELNNLRSEDTAVYYCAILEAGDLDCWGQGTLVTVSS VL: DIQMTQSPSSVSASVGDRVTITCRASQGISNWLAWYQQKPGKAPKVLIYTASSLQSGVPSRFSGSGSGTDFTLTVSGLQPEDFGTYYCQQANSFPFTFGPGTKVDIKR | 0.019
30-15 (chimeric) (antibody, V domains shown) VH: QVQLVQSGAEVKKPGASMKVSCKVSGYTLNELSIHWVRQAPGKGLEWMGGFDPEHGETVYAQNFQDRVTLTEDTSTDTSYMGLNNLRSDDTAVYYCAAESYGDYEFWGQGTLVTVSS VL: DIQMTQSPSSVSASVGDRVTITCRASQGINNWLAWYQQKPGKAPKVLIYTASSLQSGVPSRFSGSGSGTDFTLTISSLQPEDFATYYCQQANSHPWTFGQGTKVEIKR | 0.017
25-3 (chimeric) (antibody, V domains shown) VH: QVQLQESGPGQVKPSQTLSLTCSVSGGSIDSGDHYWTWIRQHPGEVLEWIGYIYSSGHTYYSPSLKSRLTMSLDTSKNQFSLRLSSVTAADTAVYYCARVGDYEWFDTWGQGTLVTVSS VL: DIVMTQSPDSLAVSLGERATINCKSSQTILYPSNNMNYLGWYQQRAGQSPRLLIYWASTRESGVPDRFSGSGSGTDFTLTISSLQAEDVAVYYCQQYYSSLPTFGQGTKVEIKR | 0.021
